assay: refractive index (Na D-line) (dimensionless); conditions: 298.15 K; 101.33 kPa; Liquid; Standard Abbe refractometry
// values below are reported refractive index
Form: value (number only, do not type unit).

// solved cases for refractive index follow
BrCCCBr | 1.5204
BrCCCCCCBr | 1.506
BrCCCCCBr | 1.5099
BrCCCCBr | 1.5163

Hello, please tell me recorded refractive index for this one: BrCCBr 1.5357

---

// values below are reported mass density
conditions: 295.15 K; 101.33 kPa; Liquid; Vibrating tube method
Express the result in kg/m3 but write the number alone.

// solved cases for mass density follow
BrCCBr | 2168.3
BrCCCBr | 1970.25
BrCCCCBr | 1819.44
BrCCCCCBr | 1694.09

Proceed to the following item.
Hello, please tell me recorded mass density for this one: BrCCCCCCBr 1601.8
